From: paper PMC5137435

target: WT1 ZF2-4 Q369K (-KTS) (Homo sapiens, UniProt P19544-4 350-437, Q369K); assay: fluorescence polarization
metricName: Kd (µM)
Dear colleague, please return just the value in µM, with no unit written.

Field request: Kd | item: Fig1 oligo X=G (dsDNA, 5mC at strand 1 pos 3 and strand 2 pos 9) DNA 1: AGCGTGGGGGT DNA 2: TACCCCCACGC
0.014
